Known viability, T/C of a selection of molecules
- System: 624824-186-R-J2-PDC multicell spheroids, viability
- assay_overview: Anticancer human tumor 624824-186-R-J2-PDC patient-derived colon adenocarcinoma cell line growth inhibition [PI3K]
- condition_context: second compound 0.00316 µM; first compound 1 µM; stronger effect = lower value

molecule	viability, T/C
CNC(=O)c1ccc(N2C(=S)N(c3ccc(C#N)c(C(F)(F)F)c3)C(=O)C2(C)C)cc1F + COc1c(OCCCN2CCOCC2)ccc2c3n(c(=NC(=O)c4cnc(N)nc4)nc12)CCN3	91.7%
C#Cc1c(F)ccc2cc(O)cc(-c3ncc4c(N5CC6CCC(C5)N6)nc(OCC56CCCN5CC(F)C6)nc4c3F)c12 (stereo not drawn) + CC(Nc1ccc2c(c1)OCCn1cc(N3C(=O)OCC3C(F)F)nc1-2)C(N)=O	87.4%
CC(Cn1ccc(-c2ccc(C#N)c(Cl)c2)n1)NC(=O)c1cc(C(C)O)[nH]n1 (stereo not drawn) + CC(Nc1ccc2c(c1)OCCn1cc(N3C(=O)OCC3C(F)F)nc1-2)C(N)=O	103%

###

Known viability, T/C of a selection of molecules
- Tested on: 624824-186-R-J2-PDC multicell spheroids, viability
- assay_overview: Anticancer human tumor 624824-186-R-J2-PDC cell line growth inhibition [PI3K];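 note: spheroids exposed to agents for 7 days before viability read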;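 for viability, T/C: 100% = DMSO vehicle treated spheroids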
- condition_context: second compound 0.316 µM; first compound 0.000316 µM; stronger effect = lower value
observable: viability, T/C (%)

>>> df
                                   molecule  assay_result
0  Cn1ncnc1[C@H]1c2n[nH]c(=O)c3cc(F)cc(c23)N[C@@H]1c1ccc(F)cc1 + CC(Nc1ccc2c(c1)OCCn1cc(N3C(=O)OCC3C(F)F)nc1-2)C(N)=O          90.7
1  CC(=O)c1c(C)c2cnc(Nc3ccc(N4CCNCC4)cn3)nc2n(C2CCCC2)c1=O + CC(Nc1ncnc2nc[nH]c12)c1cc2cccc(Cl)c2c(=O)n1-c1ccccc1           121
2  CC(C)n1nc(-c2ccc3oc(N)nc3c2)c2c(N)ncnc21 + Cc1nc(NC(=O)N2CCCC2C(N)=O)sc1-c1ccnc(C(C)(C)C(F)(F)F)c1          86.9
3  CC(C)n1nc(-c2ccc3oc(N)nc3c2)c2c(N)ncnc21 + COc1c(OCCCN2CCOCC2)ccc2c3n(c(=NC(=O)c4cnc(N)nc4)nc12)CCN3          70.6
4  CC(C)n1nc(-c2ccc3oc(N)nc3c2)c2c(N)ncnc21 + CC(Nc1ccc2c(c1)OCCn1cc(N3C(=O)OCC3C(F)F)nc1-2)C(N)=O          74.9
5  CC(=O)c1c(C)c2cnc(Nc3ccc(N4CCNCC4)cn3)nc2n(C2CCCC2)c1=O + CC(Nc1ccc2c(c1)OCCn1cc(N3C(=O)OCC3C(F)F)nc1-2)C(N)=O          87.7

###

- Tested on: 624824-186-R-J2-PDC multicell spheroids, viability
- assay_overview: Anticancer human tumor 624824-186-R-J2-PDC cell line growth inhibition [PI3K];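 note: spheroids exposed to agents for 7 days before viability read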;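 for viability, T/C: 100% = DMSO vehicle treated spheroids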
- condition_context: second compound 0.00316 µM; first compound 1 µM; stronger effect = lower value

compound	viability, T/C [%]
C=CC(=O)N1CCN(c2nc(=O)n(-c3c(C)ccnc3C(C)C)c3nc(-c4c(O)cccc4F)c(F)cc23)C(C)C1 (stereo not given) + CC(Nc1ccc2c(c1)OCCn1cc(N3C(=O)OCC3C(F)F)nc1-2)C(N)=O	97.8
CC1(C)CCC(Nc2ncc(C(F)(F)F)c(-c3c[nH]c4c(P(C)(C)=O)c(C#N)ccc34)n2)CN1 (stereo not given) + COc1c(OCCCN2CCOCC2)ccc2c3n(c(=NC(=O)c4cnc(N)nc4)nc12)CCN3	89.3
C[C@@H](NC(=O)c1ncnc(N)c1Cl)c1ncc(C(=O)Nc2cc(C(F)(F)F)c(Cl)cn2)s1 + CC(Nc1ccc2c(c1)OCCn1cc(N3C(=O)OCC3C(F)F)nc1-2)C(N)=O	59.5
CNC(=O)c1ccc(N2C(=S)N(c3ccc(C#N)c(C(F)(F)F)c3)C(=O)C2(C)C)cc1F + CC(Nc1ccc2c(c1)OCCn1cc(N3C(=O)OCC3C(F)F)nc1-2)C(N)=O	96.3
CC1(C)CCC(Nc2ncc(C(F)(F)F)c(-c3c[nH]c4c(P(C)(C)=O)c(C#N)ccc34)n2)CN1 (stereo not given) + CC(Nc1ccc2c(c1)OCCn1cc(N3C(=O)OCC3C(F)F)nc1-2)C(N)=O	98.7
Cn1nccc1Nc1nccc(-c2ccn(C(CO)c3ccc(Cl)c(F)c3)c(=O)c2)n1 (stereo not given) + CC(Nc1ccc2c(c1)OCCn1cc(N3C(=O)OCC3C(F)F)nc1-2)C(N)=O	84.7
Cn1ncc(Cl)c1-c1cc(C(=O)NC(CN)Cc2cccc(F)c2)sc1Cl (stereo not given) + COc1c(OCCCN2CCOCC2)ccc2c3n(c(=NC(=O)c4cnc(N)nc4)nc12)CCN3	87.7
Cn1nccc1Nc1nccc(-c2ccn(C(CO)c3ccc(Cl)c(F)c3)c(=O)c2)n1 (stereo not given) + COc1c(OCCCN2CCOCC2)ccc2c3n(c(=NC(=O)c4cnc(N)nc4)nc12)CCN3	75.5
CC1(C)CCC(CN2CCN(c3ccc(C(=O)NS(=O)(=O)c4ccc(NCC5CCOCC5)c([N+](=O)[O-])c4)c(Oc4cnc5[nH]ccc5c4)c3)CC2)=C(c2ccc(Cl)cc2)C1 + COc1c(OCCCN2CCOCC2)ccc2c3n(c(=NC(=O)c4cnc(N)nc4)nc12)CCN3	98
C#Cc1c(F)ccc2cc(O)cc(-c3ncc4c(N5CC6CCC(C5)N6)nc(OCC56CCCN5CC(F)C6)nc4c3F)c12 (stereo not given) + COc1c(OCCCN2CCOCC2)ccc2c3n(c(=NC(=O)c4cnc(N)nc4)nc12)CCN3	91.6

###

- Test system: 624824-186-R-J2-PDC multicell spheroids, viability
- assay_overview: Anticancer human tumor 624824-186-R-J2-PDC cell line growth inhibition [PI3K];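 note: spheroids exposed to agents for 7 days before viability read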
- condition_context: curve of first compound; second compound 0.316 µM
Known IC50 of a selection of compounds

compound	unit_label	bound_operator	IC50
Cn1ncnc1[C@H]1c2n[nH]c(=O)c3cc(F)cc(c23)N[C@@H]1c1ccc(F)cc1 + CC(Nc1ncnc2nc[nH]c12)c1cc2cccc(Cl)c2c(=O)n1-c1ccccc1	µM	>	0.1
Cn1ncc(Cl)c1-c1cc(C(=O)NC(CN)Cc2cccc(F)c2)sc1Cl (stereo not given) + Cc1nc(NC(=O)N2CCCC2C(N)=O)sc1-c1ccnc(C(C)(C)C(F)(F)F)c1	µM	=	8.5
Cn1nccc1Nc1nccc(-c2ccn(C(CO)c3ccc(Cl)c(F)c3)c(=O)c2)n1 (stereo not given) + CC(Nc1ccc2c(c1)OCCn1cc(N3C(=O)OCC3C(F)F)nc1-2)C(N)=O	µM	>	10
CC1(C)CCC(Nc2ncc(C(F)(F)F)c(-c3c[nH]c4c(P(C)(C)=O)c(C#N)ccc34)n2)CN1 (stereo not given) + COc1c(OCCCN2CCOCC2)ccc2c3n(c(=NC(=O)c4cnc(N)nc4)nc12)CCN3	µM	=	0.28
CCCS(=O)(=O)Nc1ccc(F)c(C(=O)c2c[nH]c3ncc(-c4ccc(Cl)cc4)cc23)c1F + Cc1nc(NC(=O)N2CCCC2C(N)=O)sc1-c1ccnc(C(C)(C)C(F)(F)F)c1	µM	=	6.6

###

- Tested on: 624824-186-R-J2-PDC multicell spheroids, viability
- assay_overview: Anticancer human tumor 624824-186-R-J2-PDC cell line growth inhibition [PI3K];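 note: spheroids exposed to agents for 7 days before viability read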;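 for viability, T/C: 100% = DMSO vehicle treated spheroids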
- condition_context: second compound 0.0316 µM; first compound 0.1 µM; stronger effect = lower value

compound	viability, T/C
C=CC(=O)N1CCN(c2nc(=O)n(-c3c(C)ccnc3C(C)C)c3nc(-c4c(O)cccc4F)c(F)cc23)C(C)C1 (stereo unspecified) + CC(Nc1ncnc2nc[nH]c12)c1cc2cccc(Cl)c2c(=O)n1-c1ccccc1	82.8%
CC1(C)CCC(CN2CCN(c3ccc(C(=O)NS(=O)(=O)c4ccc(NCC5CCOCC5)c([N+](=O)[O-])c4)c(Oc4cnc5[nH]ccc5c4)c3)CC2)=C(c2ccc(Cl)cc2)C1 + CC(Nc1ncnc2nc[nH]c12)c1cc2cccc(Cl)c2c(=O)n1-c1ccccc1	98.6%
CNC(=O)c1ccc(N2C(=S)N(c3ccc(C#N)c(C(F)(F)F)c3)C(=O)C2(C)C)cc1F + CC(Nc1ncnc2nc[nH]c12)c1cc2cccc(Cl)c2c(=O)n1-c1ccccc1	95.8%
Cn1ncc(Cl)c1-c1cc(C(=O)NC(CN)Cc2cccc(F)c2)sc1Cl (stereo unspecified) + Cc1nc(NC(=O)N2CCCC2C(N)=O)sc1-c1ccnc(C(C)(C)C(F)(F)F)c1	80.2%
CCCS(=O)(=O)Nc1ccc(F)c(C(=O)c2c[nH]c3ncc(-c4ccc(Cl)cc4)cc23)c1F + CC(Nc1ncnc2nc[nH]c12)c1cc2cccc(Cl)c2c(=O)n1-c1ccccc1	74.8%
C[C@@H](NC(=O)c1ncnc(N)c1Cl)c1ncc(C(=O)Nc2cc(C(F)(F)F)c(Cl)cn2)s1 + Cc1nc(NC(=O)N2CCCC2C(N)=O)sc1-c1ccnc(C(C)(C)C(F)(F)F)c1	103%
CC1(C)CCC(CN2CCN(c3ccc(C(=O)NS(=O)(=O)c4ccc(NCC5CCOCC5)c([N+](=O)[O-])c4)c(Oc4cnc5[nH]ccc5c4)c3)CC2)=C(c2ccc(Cl)cc2)C1 + COc1c(OCCCN2CCOCC2)ccc2c3n(c(=NC(=O)c4cnc(N)nc4)nc12)CCN3	90.5%
CC1(C)CCC(Nc2ncc(C(F)(F)F)c(-c3c[nH]c4c(P(C)(C)=O)c(C#N)ccc34)n2)CN1 (stereo unspecified) + CC(Nc1ncnc2nc[nH]c12)c1cc2cccc(Cl)c2c(=O)n1-c1ccccc1	93.2%
CC(C)NCC(C(=O)N1CCN(c2ncnc3c2C(C)CC3O)CC1)c1ccc(Cl)cc1 (stereo unspecified) + COc1c(OCCCN2CCOCC2)ccc2c3n(c(=NC(=O)c4cnc(N)nc4)nc12)CCN3	84.5%
CNC(=O)c1ccc(N2C(=S)N(c3ccc(C#N)c(C(F)(F)F)c3)C(=O)C2(C)C)cc1F + COc1c(OCCCN2CCOCC2)ccc2c3n(c(=NC(=O)c4cnc(N)nc4)nc12)CCN3	81.7%
CC(=O)c1c(C)c2cnc(Nc3ccc(N4CCNCC4)cn3)nc2n(C2CCCC2)c1=O + COc1c(OCCCN2CCOCC2)ccc2c3n(c(=NC(=O)c4cnc(N)nc4)nc12)CCN3	69.2%
CC(C)NCC(C(=O)N1CCN(c2ncnc3c2C(C)CC3O)CC1)c1ccc(Cl)cc1 (stereo unspecified) + CC(Nc1ccc2c(c1)OCCn1cc(N3C(=O)OCC3C(F)F)nc1-2)C(N)=O	95.4%
CC(Cn1ccc(-c2ccc(C#N)c(Cl)c2)n1)NC(=O)c1cc(C(C)O)[nH]n1 (stereo unspecified) + COc1c(OCCCN2CCOCC2)ccc2c3n(c(=NC(=O)c4cnc(N)nc4)nc12)CCN3	88.1%
Cn1nccc1Nc1nccc(-c2ccn(C(CO)c3ccc(Cl)c(F)c3)c(=O)c2)n1 (stereo unspecified) + CC(Nc1ncnc2nc[nH]c12)c1cc2cccc(Cl)c2c(=O)n1-c1ccccc1	61.6%
CCCS(=O)(=O)Nc1ccc(F)c(C(=O)c2c[nH]c3ncc(-c4ccc(Cl)cc4)cc23)c1F + CC(Nc1ccc2c(c1)OCCn1cc(N3C(=O)OCC3C(F)F)nc1-2)C(N)=O	88.3%
CC(=O)c1c(C)c2cnc(Nc3ccc(N4CCNCC4)cn3)nc2n(C2CCCC2)c1=O + CC(Nc1ccc2c(c1)OCCn1cc(N3C(=O)OCC3C(F)F)nc1-2)C(N)=O	102%
CNC(=O)c1ccc(N2C(=S)N(c3ccc(C#N)c(C(F)(F)F)c3)C(=O)C2(C)C)cc1F + CC(Nc1ccc2c(c1)OCCn1cc(N3C(=O)OCC3C(F)F)nc1-2)C(N)=O	77.3%
C#Cc1c(F)ccc2cc(O)cc(-c3ncc4c(N5CC6CCC(C5)N6)nc(OCC56CCCN5CC(F)C6)nc4c3F)c12 (stereo unspecified) + COc1c(OCCCN2CCOCC2)ccc2c3n(c(=NC(=O)c4cnc(N)nc4)nc12)CCN3	77.2%
CC(=O)c1c(C)c2cnc(Nc3ccc(N4CCNCC4)cn3)nc2n(C2CCCC2)c1=O + CC(Nc1ncnc2nc[nH]c12)c1cc2cccc(Cl)c2c(=O)n1-c1ccccc1	86.1%
CC(Cn1ccc(-c2ccc(C#N)c(Cl)c2)n1)NC(=O)c1cc(C(C)O)[nH]n1 (stereo unspecified) + CC(Nc1ccc2c(c1)OCCn1cc(N3C(=O)OCC3C(F)F)nc1-2)C(N)=O	79.6%
CCCS(=O)(=O)Nc1ccc(F)c(C(=O)c2c[nH]c3ncc(-c4ccc(Cl)cc4)cc23)c1F + Cc1nc(NC(=O)N2CCCC2C(N)=O)sc1-c1ccnc(C(C)(C)C(F)(F)F)c1	77.2%
